Where these numbers come from: paper PMC9698201

The entries below are paired with their reported uptake reduction in the presence of glucose.
Tested on: Caco-2 cells
Test: Uptake experiment, anthocyanins taken up by cells quantified by HPLC
Format: in vitro ADME, human
Details: 20 µM red grape anthocyanin extract, 1 mM glucose vs control without glucose
Expressed in %, but write only the number.

compound="OC[C@H]1O[C@@H](Oc2cc3c(O)cc(O)cc3[o+]c2-c2cc(O)c(O)c(O)c2)[C@H](O)[C@@H](O)[C@@H]1O [delphinidin-3-glucoside]" unittext=% reportedvalue=42

// query Query uptake reduction in the presence of glucose on Caco-2 cells for OC[C@H]1O[C@@H](Oc2cc3c(O)cc(O)cc3[o+]c2-c2ccc(O)c(O)c2)[C@H](O)[C@@H](O)[C@@H]1O [cyanidin-3-glucoside]
// result 67
